target: Streptavidin (Streptomyces avidinii) (UniProt P22629); assay: streptavidin binders on small-molecule microarray, primary screen, artefact control for SMM compound annotation, biophysical, 635/667 nm fluorescence (AID 1147); settings: streptavidin binding, higher = more signal;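 further: signal reflects streptavidin binding to arrayed compounds as a control protein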
Sequence (P22629 whole entry, looked up): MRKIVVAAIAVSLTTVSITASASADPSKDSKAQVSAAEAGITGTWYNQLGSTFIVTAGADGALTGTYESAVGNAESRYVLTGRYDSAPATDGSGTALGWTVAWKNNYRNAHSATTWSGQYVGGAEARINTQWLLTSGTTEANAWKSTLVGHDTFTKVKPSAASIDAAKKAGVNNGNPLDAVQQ
// reported composite z-score per item
Note: the reply should be a number with no unit written.

Would you please look over these solved cases?
# compound, systemUnderTest, measurementType, numericReadout
rows = [
    ("CC(C)(C)N1C(=O)[C@H]2[C@H]3[C@H](O)[C@H](O)CC(=NNC(=O)OCc4ccccc4)[C@H]3CC[C@H]2C1=O", "Streptavidin (Streptomyces avidinii) (UniProt P22629)", "composite z-score", -0.107),
    ("CCOC(=O)NN=C1C[C@@H](O)[C@@H](O)[C@@H]2[C@@H]3C(=O)N(c4ccc(F)cc4F)C(=O)[C@@H]3CC[C@H]12", "Streptavidin (Streptomyces avidinii) (UniProt P22629)", "composite z-score", -0.0442),
    ("CCOC(=O)[C@H](Cc1ccccc1)NC(=O)CCC1CC(OC(=O)NCc2ccc3c(c2)OCO3)CC2(CCCC(COC(=O)NCCc3ccc(Cl)cc3)O2)O1 (some centres undefined)", "Streptavidin (Streptomyces avidinii) (UniProt P22629)", "composite z-score", 1.14),
]

Next item in the queue.
What composite z-score value was documented for this compound, C=CCOCC1CN2[C@@H](CC[C@@H](C)[C@@H]2c2ccc(Br)cc2)C(=O)O1 (some centres undefined) ?
0.0804
